B1: C1orf137 (parent)
chain: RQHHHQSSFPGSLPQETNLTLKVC

- Variants of: B1
- assay notes: protein stability index of a GFP-peptide fusion (GPS, HEK-293T) (PSI 1-6); higher = more stable;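 note: lentivirally expressed fusions sorted by FACS into six bins by GFP to DsRed ratio, PSI derived from sequencing read proportions per bin multiplied by bin number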
- experimental parameters: c terminus: a fixed tail appended
// Criterion not met strictly below 3 in protein stability index; Criterion met otherwise

# input Answer whether protein stability index of RQHHHQSSFPGSEPQETNLTLKVC [L13E] is greater than or equal to 3.
# output Criterion met

# input Record: RQHHHQSSFPGSLPQETNLTIKVC [L21I]
# output Criterion not met

# input Record: RQHHHQSSFPGMLPQETNLTLKVC [S12M]
# output Criterion not met

# input Record: RQHHHQSSFWGSLPQETNLTLKVC [P10W]
# output Criterion not met

# input Record: RQHHHQSSFPGSLPQETNLTLIVC [K22I]
# output Criterion not met

# input Record: RQHHHQSSFPGSLPQETNLTCKVC [L21C]
# output Criterion met

# input Record: REHHHQSSFPGSLPQETNLTLKVC [Q2E]
# output Criterion not met

# input Record: RQHHHQSSFPGSLPSETNLTLKVC [Q15S]
# output Criterion met

# input Record: RQHHHQSSFPGSLGQETNLTLKVC [P14G]
# output Criterion met

# input Record: RQLHHQSSFPGSLPQETNLTLKVC [H3L]
# output Criterion not met

# input Record: RQHHHQSSFKGSLPQETNLTLKVC [P10K]
# output Criterion met

# input Record: YQHHHQSSFPGSLPQETNLTLKVC [R1Y]
# output Criterion not met

# input Record: RQHHHQSSFPGSLPEETNLTLKVC [Q15E]
# output Criterion met

# input Record: RQHHHQSSFPGSLPQETNWTLKVC [L19W]
# output Criterion met

# input Record: RQHHHQSSFPGSLPQETNATLKVC [L19A]
# output Criterion met

# input Record: RQHHHQSSFPGSLMQETNLTLKVC [P14M]
# output Criterion not met

# input Record: RQHHHQSSFPGSLPQETSLTLKVC [N18S]
# output Criterion not met

# input Record: RQHHHQSSFPGSLPTETNLTLKVC [Q15T]
# output Criterion met

# input Record: RQHHHQSSFPGSLPQETNLTLYVC [K22Y]
# output Criterion not met

# input Record: RQHHHQSSFPGSLPAETNLTLKVC [Q15A]
# output Criterion not met

# input Record: RQHLHQSSFPGSLPQETNLTLKVC [H4L]
# output Criterion met

# input Record: RAHHHQSSFPGSLPQETNLTLKVC [Q2A]
# output Criterion not met

# input Record: RQHHHQGSFPGSLPQETNLTLKVC [S7G]
# output Criterion met

# input Record: RQHHHQSSFPGSLPQETNLVLKVC [T20V]
# output Criterion not met

# input Record: RQHHHQSSFPGSLPQETNLTAKVC [L21A]
# output Criterion met

# input Record: SQHHHQSSFPGSLPQETNLTLKVC [R1S]
# output Criterion met

# input Record: RQHHHQSSFPGSLPQTTNLTLKVC [E16T]
# output Criterion not met

# input Record: RQRHHQSSFPGSLPQETNLTLKVC [H3R]
# output Criterion not met

# input Record: RQHYHQSSFPGSLPQETNLTLKVC [H4Y]
# output Criterion not met

# input Record: RQHHHQSSFPGSLPFETNLTLKVC [Q15F]
# output Criterion not met

# input Record: RQHHHQSSFPGSLAQETNLTLKVC [P14A]
# output Criterion met

# input Record: RQHHHQSSFPGSLPQETNLTYKVC [L21Y]
# output Criterion met

# input Record: RQHHHQSSFPGSLPQDTNLTLKVC [E16D]
# output Criterion met

# input Record: RQHKHQSSFPGSLPQETNLTLKVC [H4K]
# output Criterion met

# input Record: RQHHHQSSFPGSLPQEWNLTLKVC [T17W]
# output Criterion not met

# input Record: RQHHHQSSTPGSLPQETNLTLKVC [F9T]
# output Criterion met

meta.source: the supplement of paper PMC10567573
